TGI by entry:
Tested on: EKVX NSCLC
experimental_details: NCI tumour cell line growth inhibition, 48 h
property_measured: TGI (µM)

- Clc1ccc2c(c1)N(C1CCCN(Cc3ccccc3)C1)c1ccccc1S2 (stereo not given): 79.9
- CCOC(=O)OC1C(Br)C2CCC1(C)C2(C)C (stereo not given): 29.4
- O=[N+]([O-])c1cc(-[n+]2cc([O-])on2)ccc1Cl: 37.8
- CC(C)COC1Sc2ccccc2S1: 38.1

----------
Tested on: U251 CNS
Outcome codes: active, inactive

• Cn1c(=O)c(Oc2ccc(F)cc2F)cc2cnc(N[C@@H]3CCOC3)nc21 = inactive
• Cn1cc(C2=C(c3cn(CCCN)c4ccccc34)C(=O)NC2=O)c2ccccc21 = inactive
• O=C1Nc2ccccc2/C1=C\c1nc(-c2ccccc2F)n2ccccc12 = inactive
• O=C(Nc1cc(Cl)ccc1O)c1ccccc1Nc1ccnc(C(F)(F)F)c1 = inactive
• CCC(C)C1=C(O)[N+]2([O-])Oc3ccc(C4=C(O)C(=O)C(c5ccc(O)cc5)=C(O)C4=O)cc3OC2(C(C)CC)C(=O)N1O (configuration not stated) = inactive
• O=C(/C=C/c1ccccn1)c1ccc(OCc2nnc(-c3ccc(Cl)cc3)o2)cc1 = inactive
• Oc1[nH]c2ccccc2c1/C=c1/ccc2c(c1)N=C(c1ccc(C(F)(F)F)cc1)N=2 = inactive
• COc1ccc(-c2cn(-c3ccc(OC)c(OC)c3)c(=O)[nH]2)cc1 = inactive
• c1ccc(Oc2ccc(Nc3ncc(-c4ccccc4)o3)cc2)cc1 = inactive
• Nc1ncc(-c2ccc3ncnc(N4CCc5ccc(Cl)cc54)c3c2)cc1C(F)(F)F = inactive
• O=C(Nc1cc(Cl)cc(Cl)c1)c1cccc(NC2=C(Cl)C(=O)N(Cc3ccccc3)C2=O)c1 = inactive
• COc1ccc2c(O)c(/C=C3\N=Nc4ncccc43)oc2c1C[C@@H]1CCNC[C@H]1F = active

----------
Let's look at some compounds and their measured TGI.
System: K-562 leukemia
experimental_details: NCI tumour cell line growth inhibition, 48 h
property_measured: TGI

- COc1ccc(-c2oc3cc(OC(C)=O)cc(OC(C)=O)c3c(=O)c2OC)cc1: 29.4 µM
- COc1cc2ncnc(Nc3ccc(Oc4ccnc(C)c4)c(C)c3)c2cc1NC(=O)CC1CCSS1 (centres undefined): 1.18 µM
- C=CCOCn1cc(F)c(=O)[nH]c1=O: > 100 µM
- C=CCOCCC(CC=C)C(=O)CC(=O)OC (centres undefined): > 100 µM
- CN(C)C(=S)C(Cl)(c1ccccc1)c1ccccc1: > 100 µM
- COc1ccc2c(O)c(/C=C3\N=Nc4ncccc43)oc2c1C[C@@H]1CCNC[C@H]1F: 1.79 µM
- CCCCSCC(NC(=O)/C=C/c1c(C)[nH]c(=O)[nH]c1=O)C(=O)OC (centres undefined): 367 µM
- COc1cc(-c2nc3ccccc3o2)cc(CN2CCCCC2)c1O: > 100 µM
- COc1c(I)c(OC)c2c(c1I)O[C@@H]1OCC[C@H]21: > 100 µM
- Cc1cc(S(=O)(=O)Nc2nnc3ccccn23)c(S)cc1Cl: > 100 µM
- CCCCCCCCCCCCCCCC(=O)OCCOCCOCCOCCOCCOC(=O)CCCCCCCCCCCCCCC: > 100 µM
- OCCCCn1cc(Cn2ncc3c(NCc4ccccc4)ncnc32)nn1: > 100 µM
- CC(=O)/C(Br)=C/c1ccc(Br)o1: > 36.5 µM
- COc1ccc(S(=O)(=O)Nc2c(/C=C\c3cc(OC)c(OC)c(OC)c3)ccc(OC)c2O)cc1: > 100 µM
- CCC/C(Cl)=N/OC(NC(=O)OCC)(C(F)(F)F)C(F)(F)F: 62.6 µM
- CN(C)c1ccc(/C=N/c2nc3cc4sc(/N=C/c5ccc(N(C)C)cc5)nc4cc3s2)cc1: > 100 µM
- CO[C@@]12C[C@@H](C)[C@]34O[C@H]3C[C@]3(C)O[C@]43CC1=C(C)C(=O)O2: > 100 µM
- C[N+](C)(C)c1cc[c]([Sn]([c]2ccc([N+](C)(C)C)cc2)([c]2ccc([N+](C)(C)C)cc2)[c]2ccc([N+](C)(C)C)cc2)cc1: > 100 µM
- CCCCNC(=S)OCCC(C)CCCC(C)C (centres undefined): > 100 µM
- COc1ccccc1/C=C\C(=O)C1COCN1 (centres undefined): > 100 µM
- O=C1CCC2c3ccccc3NCN12 (centres undefined): > 100 µM
- CO[C@]12S[C@@H]3CCCC[C@@]31C(C)(C)C(=O)N2c1ccccc1: > 100 µM
- COC1=C2CC(C)CC(OC)C(OC(=O)CN)[C@H](C)/C=C(\C)C(OC(N)=O)C(OC)/C=C\C=C(/C)C(=O)NC(=CC1=O)C2=O (some centres undefined): > 100 µM
- C[P+](c1ccccc1)(c1ccc(Cl)cc1)c1ccc(Cl)cc1: 74.4 µM

----------
Test system: COLO 205 colon
experimental_details: NCI tumour cell line growth inhibition, 48 h
property_measured: TGI

• CCCCOc1ccc(/C=N/Nc2cc(C)nc3ccc(Br)cc23)cc1 = 3.47 µM
• Cc1ccc(-c2nc(-c3nccc4ccccc34)oc2-c2ccccc2)cc1 = > 100 µM
• CC(C)OC(=O)[C@H]1ON2O[C@H](O[C@@H]3CCCC[C@H]3c3ccccc3)C([Si](C)(C)c3ccccc3)[C@H]3OC(=O)[C@@H]1C32 (stereo partly specified) = > 100 µM
• COc1ccc(O)cc1C(O)c1ccccc1 (stereo unspecified) = > 100 µM
• CO[C@@]12C[C@@H](C)[C@]34O[C@H]3C[C@]3(C)O[C@]43CC1=C(C)C(=O)O2 = > 100 µM
• COc1cc2cc3c4c(cc(OC)c(OC)c4c2cc1OC)CCN3C = 39.6 µM
• CC(C)COC1Sc2ccccc2S1 = 89.2 µM
• CCCCCCCCCCNCCSS(=O)(=O)O = 27.2 µM
• O=C(N/C(=C\c1ccccc1O)c1nc2ccccc2[nH]1)c1ccccc1 = > 100 µM
• C[N+](C)(C)c1cc[c]([Sn]([c]2ccc([N+](C)(C)C)cc2)([c]2ccc([N+](C)(C)C)cc2)[c]2ccc([N+](C)(C)C)cc2)cc1 = > 100 µM
• C(=C\C(Sc1ccccc1)c1ccccc1)/NNC1=NC(c2ccccc2)C(c2ccccc2)=NN1 (stereo unspecified) = > 100 µM

----------
System: HOP-62 NSCLC
experimental_details: NCI tumour cell line growth inhibition, 48 h; in the data active = GI50 below about 0.43 µM; inactive = the rest
Outcome codes: true (1) = active, false (0) = inactive

* CCN1C(=O)N(CC)C2C1NN=c1s/c(=C3\C(=O)N(C4CCCC4)c4ccccc43)c(=O)n12 (stereo not given) | false (0)
* OC1CCCC2CCC[N-]C12.OC1CCCC2CCC[N-]C12.[O]=[V][OH] (stereo not given) | false (0)
* COc1ccc(C(=O)c2cc3c(N)c(C(=O)Nc4cccc(Br)c4C)sc3nc2C)cc1 | true (1)
* Cn1cc(C2=C(c3cn(CCCN)c4ccccc34)C(=O)NC2=O)c2ccccc21 | false (0)
* N=C(N)c1ccc(-c2ccc(-c3ccc4ccccc4c3)s2)s1 | false (0)
* CN(C)Cc1ccc(NC(=O)c2cncc(C#Cc3cnc(N)c4ncccc34)c2)cc1F | false (0)
* O=C(Nc1cc(F)c(F)cc1C(=O)O)c1ccc(-n2ccnc2)nn1 | false (0)
* COCCc1n(Cc2ccc3ccccc3c2)c2ccccc2[n+]1Cc1ccc2ccccc2c1 | false (0)
* C/C=C/C(=O)[O-].C/C=C/C(=O)[O-].N.N.N.N.[Co+3].[O-][Cl+3]([O-])([O-])[O-] | false (0)
* COc1ccc2c(c1)/C(=C\c1c(-c3cc(OC)ccc3OC)nc3sccn13)C(=O)N2 | false (0)

----------
Test system: PC-3 prostate
experimental_details: NCI tumour cell line growth inhibition, 48 h
// values below are reported TGI
property_measured: TGI

• CC[C@H](C)[C@H](NC(=O)[C@H]1CCCCN1C)C(=O)N(C)[C@H](C[C@@H](OC(C)=O)c1cccc(C(=O)N[C@@H](Cc2ccccc2)C[C@H](C)C(=O)O)n1)C(C)C = > 25 µM
• Clc1ccc2c(c1)N(C1CCCN(Cc3ccccc3)C1)c1ccccc1S2 (stereo not drawn) = > 100 µM
• O=S(=O)(O)c1ccc2c(N=Nc3ccc(S(=O)(=O)O)c4ccccc34)c(O)c(S(=O)(=O)O)cc2c1 = > 100 µM
• CCN1C(=O)N(CC)C2C1NN=c1s/c(=C3\C(=O)N(C4CCCC4)c4ccccc43)c(=O)n12 (stereo not drawn) = > 100 µM
• CCOC(=O)c1c(N2CCCC2)[nH]c(=O)c(C(c2ccc(Cl)c([N+](=O)[O-])c2)c2c(O)c(C(=O)OCC)c(N3CCCC3)[nH]c2=O)c1O = 83.9 µM
• C#CC1(O)C(COP(=O)(O)OCC2OC(n3cc(F)c(=O)[nH]c3=O)CC2O)OC(n2ccc(N)nc2=O)C1O (stereo not drawn) = > 69 µM
• O=C1OCC(c2ccc(Cl)cc2)=C1Cl = 67.9 µM
• COCCc1n(Cc2ccc3ccccc3c2)c2ccccc2[n+]1Cc1ccc2ccccc2c1 = 1.62 µM
